test system: neurons isolated from the cerebrum; test: Veratrine-induced neuronal death suppressing action (MTT); type: cell-based, embryonic day 16 rats; conditions: Rattus norvegicus, Neuron; veratrine 0.35 mM; MTT after 24 h; probit method; read-out: IC50 (50% suppression of veratrine-induced neuronal death)
Measured IC50 values are reported for all entries that follow.
Write the answer as a number in mg/L, unit excluded.

NC1CCc2c(-c3ccccc3)[nH]c3ccc([N+](=O)[O-])c1c23 (stereo not drawn) [Example 90] ... 0.7
Cc1cc2c3c(c(-c4ccccc4)[nH]c3c1)CCC2N (stereo not drawn) [Example 113] ... 0.7

Consider the record given below.
Write down the reported IC50 of COc1ccccc1-c1[nH]c2cccc3c2c1CCC3N (stereo not drawn) [Example 184] , test system: neurons isolated from the cerebrum.
0.8

Attribution: patent US6040331A
